Assay: Apparent permeability from apical to basolateral side in human Caco2 cells by LC-MS analysis
Format: ADME, cell-based
Conditions: Caco-2
Square brackets hold non-standard residues; d marks the D form. Peptide text beside a SMILES is read from it. NMeL = CN[C@@H](CC(C)C)C(=O)O
test-readout: Papp A→B

Use the examples below as a reference point.
| compound | Papp A→B |
| --- | --- |
| CC[C@H](C)[C@@H]1NC(=O)[C@H](Cc2ccc(O)cc2)NC(=O)[C@H](Cc2ccccc2)NC(=O)CNC(=O)[C@H](C(C)C)NC(=O)CNC1=O (cyclo(FYIGVG)) | 0.06 ×10⁻⁶ cm/s |
| CC(C)C[C@@H]1NC(=O)[C@@H](Cc2ccccc2)NC(=O)CNC(=O)[C@@H](C)NC(=O)[C@H](Cc2ccc(O)cc2)NC(=O)[C@@H]2CCCN2C1=O | 0.09 ×10⁻⁶ cm/s |
| CC(C)C[C@H]1NC(=O)[C@@H](Cc2ccccc2)NC(=O)CN(C)C(=O)[C@H](C)N(C)C(=O)[C@H](Cc2ccc(O)cc2)NC(=O)[C@@H]2CCCN2C1=O | < 0.14 ×10⁻⁶ cm/s |
| CC(C)C[C@@H]1NC(=O)[C@H](Cc2ccccc2)NC(=O)[C@H]([C@@H](C)O)NC(=O)CNC(=O)[C@H]([C@@H](C)O)NC(=O)[C@H](Cc2ccc(O)cc2)NC1=O (cyclo(FLYTGT)) | 0.04 ×10⁻⁶ cm/s |

# evaluate next
Asked: Look up Papp A→B: CC(C)C[C@H]1C(=O)N2CCC[C@H]2C(=O)N[C@@H](Cc2ccccc2)C(=O)N[C@@H](Cc2ccccc2)C(=O)N[C@@H](Cc2c[nH]c3ccccc23)C(=O)N[C@@H](C(C)C)C(=O)N1C (cyclo(FFWV[NMeL]P))
Given back: 6.82 ×10⁻⁶ cm/s

----------
Task for the reader: assign each of the following molecules its reported Papp A→B.
Test: Apparent permeability from apical to basolateral side in human Caco2 cells by LC-MS analysis
Format: ADME, cell-based
Conditions: Caco-2
Square brackets hold non-standard residues; d marks the D form. Peptide text beside a SMILES is read from it. NMeY = CN[C@@H](Cc1ccc(O)cc1)C(=O)O; Sar = CNCC(=O)O
Give bare numbers, in ×10⁻⁶ cm/s.

Use the examples below as a reference point.
| molecule | uom | Papp A→B |
| --- | --- | --- |
| CC(C)C[C@@H]1NC(=O)[C@H](Cc2ccc(O)cc2)N(C)C(=O)[C@H]2CCCN2C(=O)[C@H](CC(C)C)NC(=O)[C@H](CC(C)C)N(C)C(=O)[C@@H](CC(C)C)NC1=O | ×10⁻⁶ cm/s | 11.3 |
| CC(C)C[C@@H]1NC(=O)[C@@H](CC(C)C)N(C)C(=O)[C@@H](CC(C)C)N(C)C(=O)[C@H](Cc2ccc(O)cc2)NC(=O)[C@@H]2CCCN2C(=O)[C@@H](CC(C)C)N(C)C1=O | ×10⁻⁶ cm/s | 14.7 |
| CC(C)C[C@@H]1NC(=O)[C@H](CC(C)C)N(C)C(=O)[C@H](Cc2ccc(O)cc2)NC(=O)[C@@H]2CCCN2C(=O)[C@H]2CCCN2C(=O)[C@@H](CC(C)C)NC1=O | ×10⁻⁶ cm/s | 1.04 |

Below are some molecules; for each one, tell me its Papp A→B.
1. CC(C)C[C@@H]1NC(=O)[C@@H](CC(C)C)NC(=O)[C@H](CC(C)C)NC(=O)[C@H](Cc2ccc(O)cc2)N(C)C(=O)[C@H]2CCCN2C(=O)[C@H](CC(C)C)NC1=O (cyclo(LL[dP][NMeY]L[dL]))
2. CC(C)C[C@@H]1C(=O)N(C)[C@H](CC(C)C)C(=O)N[C@H](CC(C)C)C(=O)N(C)[C@@H](CC(C)C)C(=O)N2CCC[C@H]2C(=O)N[C@@H](Cc2ccc(O)cc2)C(=O)N1C
3. CC(C)C[C@@H]1NC(=O)[C@H](Cc2ccccc2)NC(=O)[C@H]([C@@H](C)O)NC(=O)CN(C)C(=O)[C@H]([C@@H](C)O)NC(=O)[C@H](Cc2ccc(O)cc2)NC1=O (cyclo(FLYT[Sar]T))
4. CC(C)C[C@@H]1NC(=O)[C@@H](CC(C)C)NC(=O)[C@@H](CC(C)C)NC(=O)[C@@H](CC(C)C)NC(=O)[C@H](Cc2c[nH]c3ccccc23)NC(=O)[C@@H]2CCCN2C1=O
5. CC(C)C[C@@H]1NC(=O)[C@H](Cc2ccccc2)N(C)C(=O)CN(C)C(=O)[C@H](C)NC(=O)[C@H](Cc2ccc(O)cc2)N(C)C(=O)[C@H]2CCCN2C1=O

Given back:
9.13
16.4
0.17
0.36
1.08

Asked: Look up Papp A→B: CC(C)C[C@@H]1C(=O)N(C)[C@@H](CC(C)C)C(=O)N(C)[C@@H](CC(C)C)C(=O)N2CCC[C@@H]2C(=O)N[C@@H](Cc2ccc(O)cc2)C(=O)N(C)[C@@H](CC(C)C)C(=O)N1C
Given back: 15.8
